tested on: STREPTOCOCCUS PYOGENES PIU 2548; test: In vitro antibacterial activity, MIC, BHI agar dilution; format: cell-based; details: S. pyogenes PIU 2548, unit assumed
PROPERTY MEASURED: log10 of MIC (log10 of the value in µg/mL)

COMPOUND	RECORDED VALUE
CC[C@H]1OC(=O)[C@H](C)C(=O)[C@H](C)[C@@H](O[C@@H]2O[C@H](C)C[C@H](N(C)C)[C@H]2O)[C@](C)(OC)C[C@@H](C)C2=N[C@@H]3CN(Cc4ccncc4)C[C@@H]3N3C(=O)O[C@@]1(C)[C@H]3[C@H]2C	-0.11
CC[C@H]1OC(=O)[C@H](C)C(=O)[C@H](C)[C@@H](O[C@@H]2O[C@H](C)C[C@H](N(C)C)[C@H]2O)[C@](C)(OC)C[C@@H](C)C2=N[C@H](COCc3cccc(Cl)c3)CN3C(=O)O[C@@]1(C)[C@H]3[C@H]2C	-0.70
CC[C@H]1OC(=O)[C@H](C)C(=O)[C@H](C)[C@@H](O[C@@H]2O[C@H](C)C[C@H](N(C)C)[C@H]2O)[C@](C)(OC)C[C@@H](C)C2=NC3CN(CCc4ccc([N+](=O)[O-])cc4)CC3N3C(=O)O[C@@]1(C)[C@H]3[C@H]2C (stereo partly drawn)	-0.11
CC[C@H]1OC(=O)[C@H](C)C(=O)[C@H](C)[C@@H](O[C@@H]2O[C@H](C)C[C@H](N(C)C)[C@H]2O)[C@](C)(OC)C[C@@H](C)C2=N[C@@H](COCc3ccccc3)CN3C(=O)O[C@@]1(C)[C@H]3[C@H]2C	-0.70
CC[C@H]1OC(=O)[C@H](C)C(=O)[C@H](C)[C@@H](O[C@@H]2O[C@H](C)C[C@H](N(C)C)[C@H]2O)[C@](C)(OC)C[C@@H](C)C2=NC[C@H](COCc3ccccc3)N3C(=O)O[C@@]1(C)[C@H]3[C@H]2C	-0.70
CCC1OC(=O)C(C)C(=O)C(C)C(OC2OC(C)CC(N(C)C)C2O)C(C)(OC)CC(C)C2=NCC(CSc3ccccc3)(CN(C)C)N3C(=O)OC1(C)C3C2C (stereo not drawn)	0.19
CC[C@H]1OC(=O)[C@H](C)C(=O)[C@H](C)[C@@H](O[C@@H]2O[C@H](C)C[C@H](N(C)C)[C@H]2O)[C@](C)(OC)C[C@@H](C)C2=NC3CN(C(C)c4ccccc4)CC3N3C(=O)O[C@@]1(C)[C@H]3[C@H]2C (stereo partly drawn)	-0.41
CC[C@H]1OC(=O)[C@H](C)C(=O)[C@H](C)[C@@H](O[C@@H]2O[C@H](C)C[C@H](N(C)C)[C@H]2O)[C@](C)(OC)C[C@@H](C)C2=NC(COCc3ccccc3)C(COCc3ccccc3)N3C(=O)O[C@@]1(C)[C@H]3[C@H]2C (stereo partly drawn)	-0.11
CC[C@H]1OC(=O)[C@H](C)C(=O)[C@H](C)[C@@H](O[C@@H]2O[C@H](C)C[C@H](N(C)C)[C@H]2O)[C@](C)(OC)C[C@@H](C)C2=NC[C@@H](C)N3C(=O)O[C@@]1(C)[C@H]3[C@H]2C	-0.41
CC[C@H]1OC(=O)[C@H](C)C(=O)[C@H](C)[C@@H](O[C@@H]2O[C@H](C)C[C@H](N(C)C)[C@H]2O)[C@](C)(OC)C[C@@H](C)C2=N[C@@H](C)[C@H](C)N3C(=O)O[C@@]1(C)[C@H]3[C@H]2C	-0.41
CC[C@H]1OC(=O)[C@H](C)C(=O)[C@H](C)[C@@H](O[C@@H]2O[C@H](C)C[C@H](N(C)C)[C@H]2O)[C@](C)(OC)C[C@@H](C)C2=N[C@H](COCc3ccnc4ccccc34)CN3C(=O)O[C@@]1(C)[C@H]3[C@H]2C	-1.00
CC[C@H]1OC(=O)[C@H](C)C(=O)[C@H](C)[C@@H](O[C@@H]2O[C@H](C)C[C@H](N(C)C)[C@H]2O)[C@](C)(OC)C[C@@H](C)C2=NC[C@H](COC(=O)c3ccncc3)N3C(=O)O[C@@]1(C)[C@H]3[C@H]2C	0.19
